Target: T1, human SNX27 full length, wild type (human, UniProt Q96L92 1-541)
T1 construct: SNX27, human, full length; also called hSNX27FL; hSNX27 WT
Assay: ITC; 600 μM SNX1(75-92) peptide titrated into 20 μM hSNX27 wild type or single-site mutant; 25 °C; 50 mM HEPES pH 7.5, 200 mM NaCl, 5% glycerol, 1 mM β-ME; single-site model
Details: both partners purified
pKd: −log10 of the molar value.
QUANTITY: pKd

binder="NGIHEEQDQEPQDLFADA (SNX1, human, residues 75 to 92; also called SNX1 75 to 92; hSNX1_(75-92); source: synthetic peptide (Genscript)) [SNX1_(75-92) peptide]" quantity=pKd value=4.90
